Reported Cmax values for a set of compounds
- experimental-protocol: Cmax in male C57BL/6 mouse at 300 mg/kg, sc administered once in a day and measured after 24 hrs by LC-MS/MS analysis
- Assay type: ADME, organism-based
- experimental-setup: in vivo
The reply should consist of the numeric value with the unit placed after it.

Sure, the documented Cmax for O=C(CCCOc1ccc(NS(=O)(=O)c2ccc(-c3ccc(C(F)(F)F)cc3)cc2)c(C(=O)O)c1)Nc1ccc(NS(=O)(=O)c2ccc(-c3ccc(C(F)(F)F)cc3)cc2)c(C(=O)O)c1 is 370 µM

Continue with the compound presented below.
Value of Cmax reported for the compound O=C(O)c1cc(CN2CC(Oc3ccc(NS(=O)(=O)c4cnn(-c5ccc(F)cc5)c4)c(C(=O)O)c3)C2)ccc1NS(=O)(=O)c1cnn(-c2ccc(F)cc2)c1 is 662 µM

---

- Test system: Acinetobacter baumannii
- experimental-protocol: Antibacterial activity against Acinetobacter baumannii ATCC19606 incubated for 18 to 20 hrs in presence of 1% of human serum by microbroth dilution method
- Assay type: functional
- experimental-setup: time 18-20 hrs
experimental-endpoint: MIC95 (µM)
Your answer should be a plain number; it is taken to be in µM.

Reported MIC95 of CCCCc1ccc(S(=O)(=O)Nc2ccc(NC(=O)CCC(=O)Nc3ccc(NS(=O)(=O)c4ccc(CCCC)cc4)c(P(=O)(O)O)c3)cc2C(=O)O)cc1 : 25

More entries:
Form: molecule = CCCCc1ccc(S(=O)(=O)Nc2ccc(NC(=O)CCC(=O)Nc3ccc(NS(=O)(=O)c4ccccc4)c(C(=O)O)c3)cc2C(=O)O)cc1 ; MIC95 = 12.5

Per the records, this molecule ( CCCCc1ccc(S(=O)(=O)Nc2ccc(NC(=O)CCC(=O)Nc3ccc(NS(=O)(=O)c4ccc(CCCC)cc4)c(-c4nn[nH]n4)c3)cc2C(=O)O)cc1 ) has MIC95 equal to 25

Given item CCCCc1ccc(S(=O)(=O)Nc2ccc(NC(=O)CCC(=O)Nc3ccc(NS(=O)(=O)c4ccc(OC)nc4)c(C(=O)O)c3)cc2C(=O)O)cc1 , the value recorded as its MIC95 is 25

MIC95 recorded for this molecule, CCCCc1ccc(S(=O)(=O)Nc2ccc(OCCCCOc3ccc(NS(=O)(=O)c4ccc(CCCC)cc4)c(C(=O)O)c3)cc2C(=O)O)cc1 , is 12.5

Noted for CCCCc1ccc(S(=O)(=O)Nc2ccc(NC(=O)CCC(=O)Nc3ccc(NS(=O)(=O)c4ccc(CCCC)nc4)c(C(=O)O)c3)cc2C(=O)O)cn1 : its MIC95 reads 25

---

- experimental-protocol: Plasma protein binding in human at 1000 to 100000 ng/ml by equilibrium dialysis based LC-MS/MS analysis
- Type: ADME, cell-free
- experimental-setup: dose 1000-100000 ng/ml, read-out: PPB (converted)
experimental-endpoint: fraction unbound
Answer as a number with no unit attached.

Lab book: fraction unbound of O=C(O)c1cc(CN2CC(Oc3ccc(NS(=O)(=O)c4cnn(-c5ccc(F)cc5)c4)c(C(=O)O)c3)C2)ccc1NS(=O)(=O)c1cnn(-c2ccc(F)cc2)c1 noted as 0.006

---

- experimental-protocol: Inhibition of wildtype Acinetobacter baumannii MsbA preincubated for 30 mins followed by ATP addition and measured after 1 hrs by Transcreener ADP2 F1 assay
Entries and their EC50 values follow.
Hi! Could you send only the number? It should be in nM, unit omitted.

// EC50 value for CCCCc1ccc(S(=O)(=O)Nc2ccc(NC(=O)CCC(=O)Nc3ccc(NS(=O)(=O)c4ccc(CCCC)nc4)c(C(=O)O)c3)cc2C(=O)O)cc1 : 64

Record CCCCc1ccc(S(=O)(=O)Nc2ccc(NC(=O)CCC(=O)Nc3ccc(NS(=O)(=O)c4ccc(CCCC)cc4)c(C(=O)O)c3)cc2CO)cc1 , field EC50: 1240

Would you kindly look at the next entry?
In plain terms, CCCCc1ccc(S(=O)(=O)Nc2ccc(NC(=O)CCCOc3ccc(NS(=O)(=O)c4ccc(CCCC)cc4)c(C(=O)O)c3)cc2C(=O)O)cc1 has a documented EC50 of 16

---

- experimental-protocol: Inhibition of wildtype Acinetobacter baumannii MsbA preincubated for 30 mins followed by ATP addition and measured after 1 hrs by Transcreener ADP2 F1 assay
Measured pEC50 of individual entries
Note: pEC50 values are expressed as the negative base-10 logarithm of concentration in M.

Consider CCCCc1ccc(S(=O)(=O)Nc2ccc(OCCCCOc3ccc(NS(=O)(=O)c4ccc(CCCC)cc4)c(C(=O)O)c3)cc2C(=O)O)cc1 . Its measured pEC50 is 8.27

According to the records, this molecule O=C(O)c1cc(CN2CC(Oc3ccc(NS(=O)(=O)c4ccc(-c5ccc(F)cc5)s4)c(C(=O)O)c3)C2)ccc1NS(=O)(=O)CCc1ccc(Cl)cc1 displays pEC50 of 8.24

Recorded result, CCCCc1ccc(S(=O)(=O)Nc2ccc(NC(=O)CCC(=O)Nc3ccc(NS(=O)(=O)c4ccc(CCCC)cc4)c(C(=O)O)c3)cc2CC(=O)O)cc1 , pEC50: 6.01

The value of pEC50 measured for the molecule CCCCc1ccc(S(=O)(=O)Nc2ccc(NC(=O)CCC(=O)Nc3ccc(NS(=O)(=O)c4ccc(OC)nc4)c(C(=O)O)c3)cc2C(=O)O)cc1 turned out to be 7.04

For record CCCCc1ccc(S(=O)(=O)Nc2ccc(CNCCC(=O)Nc3ccc(NS(=O)(=O)c4ccc(CCCC)cc4)c(C(=O)O)c3)cc2C(=O)O)cc1 the listed pEC50 is 6.51

Lab note: O=C(CCCOc1ccc(NS(=O)(=O)c2cnn(-c3ccc(F)cc3)c2)c(C(=O)O)c1)Nc1ccc(NS(=O)(=O)c2cnn(-c3ccc(F)cc3)c2)c(C(=O)O)c1 gave pEC50 of 7.30

pEC50 reading for O=C(CCCOc1ccc(NS(=O)(=O)CCc2ccc(F)cc2)c(C(=O)O)c1)Nc1ccc(NS(=O)(=O)CCc2ccc(F)cc2)c(C(=O)O)c1 : 5.94

Field pEC50 (entry O=C(CCC(=O)Nc1ccc(NS(=O)(=O)c2ccc(Oc3ccccc3)nc2)c(C(=O)O)c1)Nc1ccc(NS(=O)(=O)c2ccc(Oc3ccccc3)nc2)c(C(=O)O)c1 ) reads 6.87

Looking up CCCCc1ccc(S(=O)(=O)Nc2ccc(NC(=O)CCC(=O)Nc3ccc(N(C)S(=O)(=O)c4ccc(CCCC)cc4)c(C(=O)O)c3)cc2C(=O)O)cc1 , I see its pEC50 listed as 6.34

Looking up CCCCc1ccc(NS(=O)(=O)c2ccc(NC(=O)CCC(=O)Nc3ccc(NS(=O)(=O)c4ccc(CCCC)cc4)c(C(=O)O)c3)cc2C(=O)O)cc1 , I see its pEC50 listed as 6.22

---

- experimental-protocol: Lipophilicity, logD of compound at pH 7 by HPLC analysis
- Assay type: physicochemical
- experimental-setup: buffer
experimental-endpoint: logD

Value of measured logD for the entry O=C(O)c1cc(CN2CC(Oc3ccc(NS(=O)(=O)c4ccc(-c5ccc(F)cc5)s4)c(C(=O)O)c3)C2)ccc1NS(=O)(=O)c1cnn(-c2ccc(F)cc2)c1 : 1.8

New cases:
get_value(item= CCCCc1ccc(S(=O)(=O)Nc2ccc(NC(=O)CCC(=O)Nc3ccc(NS(=O)(=O)c4ccc(CCCC)cc4)c(C(=O)O)c3)cc2C(=O)O)cc1 , readout=logD) returns 2.1

Note to self: logD recorded for CCCCc1ccc(S(=O)(=O)Nc2ccc(NC(=O)Nc3ccc(NS(=O)(=O)c4ccc(CCCC)cc4)c(C(=O)O)c3)cc2C(=O)O)cc1 was 2.3

---

- experimental-protocol: Inhibition of wildtype Acinetobacter baumannii MsbA preincubated for 30 mins followed by ATP addition and measured after 1 hrs by Transcreener ADP2 F1 assay
pEC50 values, listed per item
Friendly reminder that pEC50 comes from taking -log10 of the concentration in mol/L.

Input O=C(O)c1cc(CN2CC(Oc3ccc(NS(=O)(=O)c4ccc(-c5ccc(F)cc5)cc4)c(C(=O)O)c3)C2)ccc1NS(=O)(=O)c1cnn(-c2ccc(F)cc2)c1 . Output pEC50: 7.77

Looking up C[C@@H]1[C@H](Oc2ccc(NS(=O)(=O)c3cnn(-c4ccc(Cl)cc4)c3)c(C(=O)O)c2)CN1Cc1ccc(NS(=O)(=O)c2cnn(-c3ccc(Cl)cc3)c2)c(C(=O)O)c1 (racemic) , I found its pEC50 recorded as 7.09

Query compound follows.
Lab book: pEC50 of CCCCc1ccc(S(=O)(=O)Nc2ccc(NC(=O)CCC(=O)Nc3ccc(NS(=O)(=O)c4ccccc4)c(C(=O)O)c3)cc2C(=O)O)cc1 noted as 6.51

---

- experimental-protocol: Cytotoxicity against GFP fused human MT4 cells cultured under serum free condition for 24 hrs by CellTiter-Glo assay
- Format: toxicity, cell-based
- experimental-setup: GFP fused MT4 cells
experimental-endpoint: EC50 at 24 h

Would you please look over these solved cases?
Per the records, this molecule ( O=C(O)c1cc(CN2CC(COc3ccc(NS(=O)(=O)c4cnn(-c5ccc(Cl)cc5)c4)c(C(=O)O)c3)C2)ccc1NS(=O)(=O)c1cnn(-c2ccc(Cl)cc2)c1 ) has EC50 at 24 h equal to > 42 µM

Entry O=C(O)c1cc(CN2CC(Oc3ccc(NS(=O)(=O)c4ccc(-c5ccc(F)cc5)s4)c(C(=O)O)c3)C2)ccc1NS(=O)(=O)CCc1ccc(Cl)cc1 , EC50 at 24 h reported as 38.7 µM

Sure, the documented EC50 at 24 h for O=C(CCCOc1ccc(NS(=O)(=O)c2ccc(-c3ccccc3)s2)c(C(=O)O)c1)Nc1ccc(NS(=O)(=O)c2ccc(-c3ccccc3)s2)c(C(=O)O)c1 is > 42 µM

Recorded EC50 at 24 h (molecule CCCCc1ccc(S(=O)(=O)Nc2ccc(NC(=O)CCC(=O)Nc3ccc(NS(=O)(=O)c4ccc(CCCC)cc4)c(C(=O)O)c3)cc2C(=O)O)cc1 ): > 42 µM

Form field EC50 at 24 h, entry O=C(O)c1cc(CN2CC(Oc3ccc(NS(=O)(=O)c4ccc(-c5ccc(F)cc5)cc4)c(C(=O)O)c3)C2)ccc1NS(=O)(=O)c1cnn(-c2ccc(F)cc2)c1 : > 42 µM

Let's switch to this molecule now.
molecule Cc1c(S(=O)(=O)Nc2ccc(NC(=O)CCCOc3ccc(NS(=O)(=O)c4cnn(-c5ccc(Cl)cc5)c4C)c(C(=O)O)c3)cc2C(=O)O)cnn1-c1ccc(Cl)cc1 , EC50 at 24 h observed: 0.9 µM

Cited source for all entries: ChEMBL document CHEMBL5584343
